pKd values for the binders below.
# target.or.test.system: von Willebrand factor (VWF) (Homo sapiens, UniProt P04275 P04275:764-2813)
# assay.procedure: filter; Bmax 73%; 2 mM CaCl2, 37 C
# assay.setup: tags: factor VIII free, Haematologic Technologies Inc; label: 5'-32P
In plain terms, pKd is the concentration in mol/L turned into minus its base-10 logarithm.

>  <binder>
ACGAACUGCCCUCGUAAGACGCACAGACGUUUUUU (ssRNA, mAmCmGmAmAmCmUmGfCfCfCmUmCmGmUmAmAmGmAfCrGfCmAmCmAmGmAmCmGfUmUmUmUmUmUidT) [DTRI-012]

>  <test.readout>
pKd

>  <result.number>
8.26

$$$$

Could you now look at the following binder, please?
Exercise: Recorded pKd for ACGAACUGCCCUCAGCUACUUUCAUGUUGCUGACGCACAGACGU (ssRNA, rAmCrGrArAfCfUrGfCfCfCfUfCrArGfCfUrAfCfUfUfUfCrAfUrGfUfUrGfCfUrGrAfCrGfCrAfCrArGrAfCmGfU-idT) [T25 vrt15] , please?
Solution: 8.14

Sourced from patent US20190218553
